Values were extracted from patent US20230322924A1.

# TEST TARGET: Human CD33 ECD-HSA (human)
# Sequence (chain, as listed by the source): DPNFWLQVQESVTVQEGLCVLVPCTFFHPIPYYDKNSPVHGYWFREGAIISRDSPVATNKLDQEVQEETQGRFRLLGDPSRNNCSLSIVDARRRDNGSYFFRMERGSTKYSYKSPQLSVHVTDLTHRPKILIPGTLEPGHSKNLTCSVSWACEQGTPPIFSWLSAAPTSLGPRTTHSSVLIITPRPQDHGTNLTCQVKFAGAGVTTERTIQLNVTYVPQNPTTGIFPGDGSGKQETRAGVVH
# ASSAY METHOD TEXT: ProteOn SPR, mAb captured by anti-human Fc, 1:1 Langmuir fit
ENDPOINT NAME: Kd

BINDER	DATA VALUE
C33B73 (antibody, IgG1, V domains shown, huIgG1 F405L; also called C33F78; C33H66/C33L60) VH: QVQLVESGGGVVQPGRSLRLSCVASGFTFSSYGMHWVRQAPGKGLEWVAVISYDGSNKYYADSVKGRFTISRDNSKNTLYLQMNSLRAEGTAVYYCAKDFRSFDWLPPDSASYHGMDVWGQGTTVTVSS VL: SYELTQPPSVSVSPGQTASITCSGDKLGDKYACWYQQKPGQSPVLVIYQDGKRPSGIPERFSGSNFGNKATLTISGTQAMDEADYYCQAWDRNTVVFGGGTKLTVL	0.1 nM
C33B52 (antibody, IgG1, V domains shown, huIgG1 F405L; also called C33F57; C33H42/C33L8) VH: QLQLQESGPGLVNPSETLSHTCTVSGGSISSSSHYWGWIRQPPGKGLEWIGKIYYSGNTYYNPSLKSRVTISIDTSKNQFSLKMSSVTAADTAVYYCARLADVVVVPAARYFDSWGQGTLVTVSS VL: SYELTQPPSVSVSPGQTASIICSGDKLGNKYACWYQQKPGQSPVLVIYQDSKRPSGIPERFSGSNSGNTATLTISGTQAVDEADYYCQAWDSSTYVFGTGTKVTVL	19.2 nM
C33B63 (antibody, IgG1, V domains shown, huIgG1 F405L; also called C33F68; C33H51/C33L34) VH: QLQLQESGPGLVKPSETLSLTCTVSGGSISTGRYYWGWIRQPPGKGVIWIGNIYYSGNTYYNPSLKSRVTISVDTSKNQFSLKLNSVTAADTAVYYCARLGSLVVVPAAMSFDYWGQGTLVTVSS VL: SYELTQPPSVSVSPGQTASITCSGDKLGDKYACWYQLRPGQSPILVIYQDSNRPSGIPERFSGSNSGNTATLTISGTQAMDEADYYCQAWDSSTWVFGGGTKLTVL	7.01 nM
C33B82 (antibody, IgG1, V domains shown, huIgG1 F405L; also called C33F87; C33H78/C33L57) VH: QVQLVESGGGVVQPGRSLRLSCAASGFTFSSYGMHWVRQAPGKGLEWVAVISYDGSNKYYADSVKGRFTISRDNSKNTLFLQMNSLRAEDTAVYYCAKDFRYFDWLPPDSSSYYGMDVWGQGTTVTVSS VL: SYELTQPPSVSVSPGQTASITCSGDELGNKYACWYQQKPGQSPVVVVYQDRKRPSGIPERFSGSNFGNTATLTISGTQAMDEADYYCQAWDSSTVVFGGGTKLTVL	0.61 nM
C33B124 (antibody, IgG1, V domains shown, huIgG1 F405L; also called C33F129; C33H73/C33L32) VH: EVQLLESGGGLVQPGGSLRLSCAASRFTFSSYAMTWVRQAPGKGLEWVSTINISGGSTYYADSVKGRFTISRDNSKNTLYLQMNSLRAEDTAVYYCTKGGYSSGPFDYWGQGTLVSVSS VL: SYELTQPPSVSVSPGQTASITCSGDKLGDKYVRWYQQKTGQSPVLVMYQDSKRPSGIRERFYGSNSGNTATPTISGTQAVDEAEYYCQAWDSSTGVVFGGGTKLTVL	0.35 nM
